target: T1, cynomolgus monkey CGRP receptor (cynomolgus monkey, UniProt A0A2K5VQ71 34-472); experiment: yeast-displayed Fab, FACS, detergent-solubilized lysate of cynomolgus CGRP receptor/HEK cells vs blank cells
T1 construct: whole, on cells; Presented as detergent-solubilized lysate of HEK cells expressing the cynomolgus receptor; also called Cyno CGRP Receptor; Cynomolgus Monkey CGRP Receptor/HEK detergent-solubilized cell lysate
T1 sequence (A0A2K5VQ71 entry or part of it): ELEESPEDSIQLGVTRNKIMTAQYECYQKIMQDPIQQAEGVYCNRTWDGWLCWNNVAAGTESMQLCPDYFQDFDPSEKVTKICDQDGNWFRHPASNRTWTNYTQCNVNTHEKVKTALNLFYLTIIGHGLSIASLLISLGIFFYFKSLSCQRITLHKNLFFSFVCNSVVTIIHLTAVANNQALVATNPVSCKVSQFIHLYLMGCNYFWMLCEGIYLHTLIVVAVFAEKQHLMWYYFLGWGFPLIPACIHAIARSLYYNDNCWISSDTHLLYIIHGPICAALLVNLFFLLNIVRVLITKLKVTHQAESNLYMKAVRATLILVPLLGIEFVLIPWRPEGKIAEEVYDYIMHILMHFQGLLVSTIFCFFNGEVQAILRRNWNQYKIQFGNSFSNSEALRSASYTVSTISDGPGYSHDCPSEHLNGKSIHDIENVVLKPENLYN
Task for the reader: assign each of the following binders its reported Cyno CGRP Receptor/Blank Cells Specific Binding.
Number in ratio, nothing else.

What value of measured Cyno CGRP Receptor/Blank Cells Specific Binding is listed for anti-CGRP receptor variant 01, yeast-displayed Fab (Fab, V domains shown, also called Variant Ab ID 01) VH: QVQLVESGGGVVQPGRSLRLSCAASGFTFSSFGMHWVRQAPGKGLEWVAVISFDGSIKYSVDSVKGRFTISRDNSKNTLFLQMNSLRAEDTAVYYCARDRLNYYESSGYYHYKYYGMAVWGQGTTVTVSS VL: QSVLTQPPSVSAAPGQKVTISCSGSYSNIGRYSVSWYQQLPGTAPKLLIYDNNKRPSGIPDRFSGSKSGTSATLGITGLQTGDEADYYCGTWDSRLSAVVFGGGTKLTVLG ? 4.6

Entry under review: anti-CGRP receptor variant 14, yeast-displayed Fab (Fab, V domains shown, also called Variant Ab ID 14) VH: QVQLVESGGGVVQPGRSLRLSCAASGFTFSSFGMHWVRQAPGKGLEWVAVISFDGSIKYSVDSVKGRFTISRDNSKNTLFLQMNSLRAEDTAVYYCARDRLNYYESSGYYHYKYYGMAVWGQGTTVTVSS VL: QSVLTQPPSVSAAPGQKVTISCSGSSSNIGNNYVSWYQQLPGTAPKLLIYDNNKRPSGIPDRFSGSKSGTSATLGITGLQTGDEADYYCGTWDSWHRVVTFGGGTKLTVLG . Reported Cyno CGRP Receptor/Blank Cells Specific Binding? 2.2

Any idea what Cyno CGRP Receptor/Blank Cells Specific Binding was measured for anti-CGRP receptor variant 05, yeast-displayed Fab (Fab, V domains shown, also called Variant Ab ID 05) VH: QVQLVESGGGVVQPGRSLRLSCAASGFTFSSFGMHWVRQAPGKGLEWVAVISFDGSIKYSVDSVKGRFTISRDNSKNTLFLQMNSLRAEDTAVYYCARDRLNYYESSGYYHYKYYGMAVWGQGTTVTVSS VL: QSVLTQPPSVSAAPGQKVTISCSGSFSNIGRSTVSWYQQLPGTAPKLLIYDNRWRAGGIPDRFSGSKSGTSATLGITGLQTGDEADYYCGTWDYQWKAVVFGGGTKLTVLG ? 5.2
